system: SW-620 colon; experiment: NCI-60 one-dose screen, 48 h (100 = growth as untreated, 0 = no growth, -100 = all killed); settings: 10 µM unless noted
About 83,000 compounds went through this panel and 20% of them were active in at least one assay; those are over-represented in the sample as a whole.
Mark criterion met for reported growth of 70% or greater; mark criterion not met for anything smaller.

1. CCc1c2cc(Cl)ccc2n2cc(Cc3ccccc3)[nH]c(=O)c12
criterion met
2. CC(=O)N1N=C(CCC(=O)c2nc3ccc([N+](=O)[O-])cc3[nH]2)OC1c1ccc(O)cc1 (stereo not drawn)
criterion met
3. Oc1ccc(Cl)cc1Sc1cc(Cl)ccc1O
criterion met
4. COC(=O)c1oc2c(C(=O)/C=C/c3ccc(OC)cc3)c(OCCN3CCOCC3)ccc2c1C
criterion not met
5. N#CC1=C(N)Oc2c(ccc3ccccc23)C1c1cc(=O)oc2ccc(Cl)cc12 (stereo not drawn)
criterion not met
6. Cc1cc(O[C@@H]2O[C@@H](C)[C@H](O)[C@@H](O)[C@H]2O)c2c3c(c(O[C@@H]4O[C@@H](C)[C@H](O)[C@@H](O)[C@H]4O)cc2c1)C(=O)c1c(O)cccc1C3=O
criterion met
7. COc1cc2c(/C=C3/C(=O)Nc4ccc(O)cc43)c(Cl)n(Cc3cc(OC)c(OC)c(OC)c3)c2cc1C
criterion not met
8. Cc1nccc2c3ccc(OCc4cn(-c5ccc(Br)cc5)nn4)cc3n(CCCc3ccccc3)c12
criterion not met
9. CCCCCn1ncc(-c2c(O)c(O)cc3c(O)c(-c4c(C)cc5c(-c6cnn(CCCCC)n6)c(O)c(O)cc5c4O)c(C)cc23)n1
criterion not met
10. Nc1nc(Cl)cc(NCc2ccc(CNc3cc(Cl)nc(N)n3)cc2)n1
criterion met
11. Cc1cc(NC(=O)c2cccc(C(F)(F)F)c2)ccc1-n1ccc2c(NC(=O)c3ccccc3)nccc21
criterion met
12. CCOC(=O)NNc1nncc2ccccc12
criterion met
13. CCNc1ncnc2n[nH]nc12
criterion met
14. CCN1CCN(Cc2ccc(NC(=O)Nc3cccc(-n4ccc5c(NC(=O)c6ccccc6)nccc54)c3)cc2C(F)(F)F)CC1
criterion met
15. COc1ccc(-c2nn(-c3ccc(NC(=O)c4ccc(Cl)c(C(F)(F)F)c4)cc3)cc2-c2ccncc2)cc1Cl
criterion not met
16. COc1ccc(N)c(S)c1
criterion met
17. CC(=O)O[C@@H]1[C@@H](OC(C)=O)[C@H](OC(C)=O)CO[C@H]1Nc1cccc2ccccc12
criterion met
18. Cc1cc(-c2ccccc2)nc2ccccc12
criterion met
19. COc1ccc(C2=NN(C(=O)COc3ccc(Cl)cc3)C(O)(c3cc(F)c(Cl)cc3Cl)C2)cc1 (stereo not drawn)
criterion met
20. NCC(=O)NS(=O)(=O)OC[C@H]1O[C@@H](n2cnc3c(N)ncnc32)[C@H](O)[C@@H]1O
criterion not met
21. O=C(NOC1OC(CO)C(O)C(O)C1O)Nc1ccccc1 (stereo not drawn)
criterion met
22. S=c1[nH]nc(Cn2c3ccccc3c3ccncc32)o1
criterion met
23. c1nc(SC2=NCCN2)c2[nH]cnc2n1
criterion not met
24. COc1cc2ncnc(Oc3ccc(NC(=O)Nc4ccc(C5(C#N)CCCC5)cc4)c4ccccc34)c2cc1OC
criterion not met
25. CN1CCN(Cn2nc(-c3cc(Cl)cc(Cl)c3Cl)n(/N=C/c3ccc(Cl)cc3)c2=S)CC1
criterion met
26. COC(OC)C1(c2ccccc2)NC(=O)NC1=O (stereo not drawn)
criterion met
27. Cc1ccc(Cn2cc(COc3ccc4c5ccnc(C)c5n(CCCc5ccccc5)c4c3)nn2)cc1
criterion met
28. COc1ccc(C(=O)NC(=O)Nc2ccc3c(c2)NC(=O)/C3=C\c2[nH]c(C)c(C(=O)O)c2C)cc1
criterion not met
29. CC(C)CNCC(O)COc1ccc(C(C)(C)c2ccc(OCC(O)CNCC(C)C)cc2)cc1 (stereo not drawn)
criterion not met
30. COc1cc(/C=C/C(=O)c2ccc(Oc3ncnc4ccccc34)cc2)cc(OC)c1OC
criterion not met
31. CCOC(=O)c1noc2c1CCc1c-2cn(Cc2ccc(OC)cc2)c1-c1cc(OC)c(OC)c(OC)c1
criterion not met
32. O=[N+]([O-])c1ccccc1NC1c2ccccc2Oc2ccccc21
criterion not met
33. N#Cc1c(N)nc2c(c1N)C(c1ccc(Cl)cc1)C1=C(CCCC1=O)N2c1sc2c(c1C#N)CCCC2 (stereo not drawn)
criterion met
34. CCCCCCCCCCCCCCCC(=O)NS(=O)(=O)OC[C@H]1O[C@@H](n2cnc3c(N)ncnc32)[C@H](O)[C@@H]1O
criterion not met
35. C=CC(C)(O)CCC1C(=C)CCC2C(C)(C)CCCC12C (stereo not drawn)
criterion met
36. CC(=O)n1cc(/C=C2\N=C(c3ccc(Cl)cc3)N(c3ccc(S(=O)(=O)Nc4nccs4)cc3)C2=O)c2ccccc21
criterion met
